- EXPERIMENTAL_TARGET: human Kv72+3 channels (Homo sapiens, UniProt O43525+O43526)
- Construct: expressed in transfected cells
- TEST_SUMMARY: Patch-clamp on HEK293 cell lines stably expressing human Kv7.2+3 channels
- Assay type: cell-based
- CONDITIONS_USED: conc. 0.03 μM, −30 mV, 20 ms; baseline current defined as 100%; HEK293 cells
PROPERTY_LABEL: I^K(%) increase in baseline current

Record excerpt, results attached:
INSERT INTO assay_data (compound, experimental_target, assay_value) VALUES
  ('CN(C)c1nc(NCc2ccc(F)cc2)ccc1NC(=O)Cc1cc(F)cc(F)c1', 'human Kv72+3 channels (Homo sapiens, UniProt O43525+O43526)', 685),
  ('CCN(C)c1nc(NCc2ccc(F)cc2)ccc1NC(=O)Cc1ccc(C(F)(F)F)c(F)c1', 'human Kv72+3 channels (Homo sapiens, UniProt O43525+O43526)', 268),
  ('CCN(C)c1nc(NCC(C)C)ccc1NC(=O)Cc1cc(F)cc(F)c1', 'human Kv72+3 channels (Homo sapiens, UniProt O43525+O43526)', 548);

[P] CCN(C)c1nc(NCc2ccc(F)cc2)ccc1NC(=O)CC(C)(C)C
[Q] CCN(C)c1nc(NCc2ccc(F)cc2)ccc1NC(=O)[C@@H]1C[C@H]1c1ccccc1 (relative stereo)
Q: Param metric = I^K(%) increase in baseline current; output whichever of P , Q has the minimum value. Please indicate the selected item by its label.
Result: P
(P: 105%, Q: 285%)
